# target_of_assay: T1, PD-L1/Fc (UniProt Q9NZQ7 19-238, limits assumed)
# T1 construct: not shown: Fc part
# assay: SPR (Biacore 8K), prokaryotically expressed antibody as ligand, PD-L1/Fc as analyte, 1:1 binding model
Entries and their measured Kd follow.
Lab book: enter the figure in pM, no units written.

Please review the following examples before continuing.
• AH02029 (prokaryotically expressed antibody product) (Fab, V domains shown) VH: QVQLQESGPGLVKPSQTLSLTCTVTGYSITSGYTWHWIRQHPGKGLEWIGYIHYSGSTKYNPSLKSRVSISRDTSKNQFSLKLSSVTAADTAVYYCARNSLFASWGQGTLVTVSS VL: DIVLTQSPDSLAVSLGERATINCRASESVDTYGDSFMHWYQQKPGQPPKLLIYRASNLESGVPDRFSGSGSGTDFTLTISSLQAEDVAVYYCQQSNEAPYTFGGGTKLEIK = 56.8
• AH01947 (prokaryotically expressed antibody product) (Fab, V domains shown) VH: QVQLQESGPGLVKPSQTLSLTCTVSGYSITSGYTWHWIRQHPGKGLEWIGYIHYSGSTKYNPSLKSRVTISVDTSKNQFSLKLSSVTAADTAVYYCARNSLFASWGQGTLVTVSS VL: DIVLTQSPDSLAVSLGERATINCRASESVDTYGDSFMHWFQQKPGQPPKLLIYRASNLESGVPDRFSGSGSGTDFTLTISSLQAEDVAVYYCQQSNEAPYTFGGGTKLEIK = 82.2

In plain terms, AH02033 (prokaryotically expressed antibody product) (Fab, V domains shown) VH: QVQLQESGPGLVKPSQTLSLTCTVTGYSITSGYTWHWIRQHPGKGLEWMGYIHYSGSTKYNPSLKSRFTISRDTSKNQFSLKLSSVTAADTAVYYCARNSLFASWGQGTLVTVSS VL: DIVLTQSPDSLAVSLGERATINCRASESVDTYGDSFMHWFQQKPGQPPKLLIYRASNLESGIPDRFSGSGSGTDFTLTISSLQAEDVAVYYCQQSNEAPYTFGGGTKLEIK has a documented Kd of 0.0676
